Each entry below lists one item and its recorded microsomal CLint at 0.5 μM value.
assay: Determination of the microsomal half-life, rat liver microsomes; details: rat, liver microsomes, pH 7.4
Counter-ions that a name gives are not always drawn.

Examples with their reported microsomal CLint at 0.5 μM follow.
compound | parameter.measured | result
O=C1c2c(-c3ccncc3)ccnc2CN1CCc1cnc2ccccc2n1 [compound 465] | microsomal CLint at 0.5 μM | < 100 µL/min/mg
Cc1ccc(-c2cccc3c2C(=O)N(CCc2ccc4ccccc4n2)C3)cn1 [Example 91] | microsomal CLint at 0.5 μM | < 100 µL/min/mg
O=C1c2c(cccc2OCc2ccccn2)CN1CCc1ccc2ccccc2n1 [Example 129] | microsomal CLint at 0.5 μM | < 100 µL/min/mg
CC1CN(c2cccc3c2C(=O)N(CCc2ccc4ccccc4n2)C3)CCO1 (centres unmarked) [Example 228, trifluoroacetate] | microsomal CLint at 0.5 μM | 100 to 220 µL/min/mg
O=C1c2c(N3CCOCC3)ccnc2CN1CCc1cn2ccccc2n1 [Example 270, di-trifluoroacetate] | microsomal CLint at 0.5 μM | < 100 µL/min/mg

[ask] Need microsomal CLint at 0.5 μM, item O=C1c2cccc(N3CCOCC3)c2CN1CCc1cn2ccccc2n1 [Example 308]
[reply] < 100 µL/min/mg

[ask] If you can, please state the reported microsomal CLint at 0.5 μM value of O=C1c2c(OCF)ccc(-c3cncnc3)c2C(=O)N1CCc1cn2ccccc2n1 [compound 545] .
[reply] < 100 µL/min/mg

[ask] Reported microsomal CLint at 0.5 μM for CN1CCN(Cc2ccc(-c3cccc4c3C(=O)N(CCc3ccc5ccccc5n3)C4)cc2)CC1 [Example 167, trifluoroacetate] : what is it?
[reply] 100 to 220 µL/min/mg

[ask] Can you look up the measured microsomal CLint at 0.5 μM of O=C1c2c(-c3ccncc3)ccnc2CN1CCc1ccc2ncccc2n1 [compound 512] for me?
[reply] < 100 µL/min/mg

[ask] Any idea what its microsomal CLint at 0.5 μM is? The compound is Cn1c(CCN2Cc3cccc(N4CCOCC4)c3C2=O)nc2cc(F)ccc21 [Example 262]
[reply] < 100 µL/min/mg

[ask] Can you look up the measured microsomal CLint at 0.5 μM of O=C1c2cccc(-c3ccncc3)c2CN1CCc1nc2ccccc2s1 [compound 431] for me?
[reply] > 220 µL/min/mg

[ask] Name the reported microsomal CLint at 0.5 μM value associated with the compound NCc1ccc(-c2cccc3c2C(=O)N(CCc2ccc4ccccc4n2)C3)cc1 [Example 193]
[reply] < 100 µL/min/mg

[ask] Please look up its microsomal CLint at 0.5 μM: COc1ccc(-c2ccnc3c2CN(CCc2cn4ccccc4n2)C3=O)cc1 [compound 461, trifluoroacetate]
[reply] > 220 µL/min/mg

[ask] I have this compound here, O=C1c2c(N3CCOCC3)ccnc2CN1CCc1ccc2sccc2n1 [compound 491] , and I need its recorded microsomal CLint at 0.5 μM.
[reply] 100 to 220 µL/min/mg

[ask] Would you mind telling me what microsomal CLint at 0.5 μM value was observed for Cc1nc(CCN2Cc3nccc(-c4ccncc4)c3C2=O)sc1C [compound 408] ?
[reply] 100 to 220 µL/min/mg

[ask] So what's the measured microsomal CLint at 0.5 μM for this one? O=C1c2c(cccc2-c2ccc3[nH]cnc(=O)c3c2)CN1CCc1ccc2ccccc2n1 [Example 7, trifluoroacetate]
[reply] 100 to 220 µL/min/mg

[ask] Reported microsomal CLint at 0.5 μM, compound CC1CCN(c2cccc3c2C(=O)N(CCc2ccc4ccccc4n2)C3)CC1N (centres unmarked) [Example 174] : ____
[reply] 100 to 220 µL/min/mg
